# TEST SYSTEM: mouse renalase (mouse, UniProt A7RDN6 18-342, limits assumed)
# Sequence (A7RDN6 18-342 limits assumed): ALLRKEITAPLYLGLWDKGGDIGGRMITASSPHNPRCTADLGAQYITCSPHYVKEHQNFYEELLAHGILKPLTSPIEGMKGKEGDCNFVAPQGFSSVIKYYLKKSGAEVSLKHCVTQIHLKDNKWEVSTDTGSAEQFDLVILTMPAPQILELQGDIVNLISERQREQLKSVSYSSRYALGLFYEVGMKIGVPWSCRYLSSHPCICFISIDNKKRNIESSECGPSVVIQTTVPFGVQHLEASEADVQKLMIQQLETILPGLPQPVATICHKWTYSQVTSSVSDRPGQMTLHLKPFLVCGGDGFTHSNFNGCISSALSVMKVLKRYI
# TEST: cell-based or functional assay
READOUT LABEL: IC50 of % cell survival, YUMM1.7 (mouse melanoma) cells

1) M28-K13 (humanized, affinity-matured variant of M28) (antibody, V domains shown) VH: EVQLVESGGGLVQPGGSLRLSCAASGFNLSSFAVHWVRQAPGKGLEWVALIGVRGSLYYADSVKGRFTISKDTSKNTAYLQMNSLRAEDTAVYYCARHWYSGGVVRLDAWGQGTLVTVSS VL: DIQMTQSPSSLSASVGDRVTITCRASQSVYDNNNVAWYQQKPGKAPKLLIYGASTLYSGVPSRFSGSRSGTDFTLTISSLQPEDFATYYCLGEFSCSSADCFAFGQGTKVEIKR | 31.5 nM
2) M28-K5 (humanized, affinity-matured variant of M28) (antibody, V domains shown) VH: EVQLVESGGGLVQPGGSLRLSCAASGFNLSSFAVHWVRQAPGKGLEWVALISGRGTRFYADSVKGRFTISKDTSKNTAYLQMNSLRAEDTAVYYCARHWYSGGVVRLDAWGQGTLVTVSS VL: DIQMTQSPSSLSASVGDRVTITCRASQSVYDNNNVAWYQQKPGKAPKLLIYGASTLYSGVPSRFSGSRSGTDFTLTISSLQPEDFATYYCLGEGPCSVTDCLIFGQGTKVEIKR | 3760 nM
3) M28-K16 (humanized, affinity-matured variant of M28) (antibody, V domains shown, the residue limits are my own count) VH: EVQLVESGGGLVQPGGSLRLSCAASGFNLSSFAVHWVRQAPGKGLEWVALISGRGTRFYADSVKGRFTISKDTSKNTAYLQMNSLRAEDTAVYYCARHWYSGGVVRLDAWGQGTLVTVSS VL: DIQMTQSPSSLSASVGDRVTITCRASQSVYDNNNVAWYQQKPGKAPKLLIYGASTLYSGVPSRFSGSRSGTDFTLTISSLQPEDFATYYCLGEFSCSSADCFAFGQGTKVEIKR | 17.5 nM
